Some compounds, each annotated with its measured Activity.
- Target: Estrogen receptor (Homo sapiens)
- Sequence (whole entry): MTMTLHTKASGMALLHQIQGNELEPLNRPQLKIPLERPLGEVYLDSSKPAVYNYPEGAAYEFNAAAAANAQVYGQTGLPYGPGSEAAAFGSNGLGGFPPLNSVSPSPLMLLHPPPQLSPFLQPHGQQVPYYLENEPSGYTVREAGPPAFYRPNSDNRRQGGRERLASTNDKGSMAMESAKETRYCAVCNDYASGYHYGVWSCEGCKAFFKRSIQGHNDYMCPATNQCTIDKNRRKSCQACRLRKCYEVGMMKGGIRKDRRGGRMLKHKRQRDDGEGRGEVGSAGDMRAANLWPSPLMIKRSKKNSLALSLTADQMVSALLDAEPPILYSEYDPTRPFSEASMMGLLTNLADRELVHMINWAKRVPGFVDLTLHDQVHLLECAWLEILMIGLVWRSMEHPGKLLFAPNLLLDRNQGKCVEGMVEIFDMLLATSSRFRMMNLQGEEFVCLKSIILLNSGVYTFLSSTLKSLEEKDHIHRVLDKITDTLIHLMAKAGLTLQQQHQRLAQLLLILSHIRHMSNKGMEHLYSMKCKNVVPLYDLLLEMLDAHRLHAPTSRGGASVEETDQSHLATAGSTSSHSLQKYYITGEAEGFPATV
- Experiment notes: Activation of human estrogen receptor alpha expressed in HEK293 cells at 10 uM by beta-galactosidase reporter gene assay relative to 3,17 beta-estradiol
- Assay type: cell-based
Measure name: Activity

CS(C)=C(C(=O)Cc1ccccc1)C(=O)c1ccccc1 : -1.2%
c1ccc(CCC2CC(Cc3ccccc3)=NO2)cc1 (stereo not drawn) : 7%
Oc1ccc(CC2CC(CCc3ccccc3)=NO2)cc1 (single isomer, unassigned; 69b) : 105%
O=C(CCc1ccccc1)CC(=O)CCc1ccccc1 : 0.6%
COc1ccccc1CC(=O)CC(Cc1cccc2ccccc12)OC (single isomer, unassigned; 63b) : 0.6%
COc1ccccc1CC(CC(=O)Cc1ccc2ccccc2c1)OC (stereo not drawn) : 0.2%
COc1cc2ccccc2cc1CC(CC(=O)Cc1ccc2ccccc2c1)OC (stereo not drawn) : 14.8%
COC(CC(=O)c1ccccc1)Cc1ccccc1 (stereo not drawn) : 0.3%
Oc1cccc(CCC2=NOC(Cc3ccccc3)C2)c1 (single isomer, unassigned) : 19.2%
COC(CC(=O)CCc1ccccc1)Cc1ccc(F)cc1 (stereo not drawn) : 33.1%
COC(CCc1ccccc1)CC(=O)CCc1ccccc1 (stereo not drawn) : 14.5%
O=C(CCc1ccccc1)CC(=O)Cc1ccccc1 : 24.3%
COC(CC(=O)Cc1ccc(F)cc1)Cc1cccc2ccccc12 (single isomer, unassigned; 62b) : 4.5%
O=C(CCc1ccccc1)CC(O)Cc1ccc2ccccc2c1 (single isomer, unassigned; 57a) : 12.4%
O=C(CC(=O)Cc1ccccc1)Cc1ccccc1 : 4.3%
COC(CCc1ccccc1)CC(=O)CCCc1ccccc1 (stereo not drawn) : 3.1%
COC(CCc1ccccc1)CC(=O)c1ccccc1 (stereo not drawn) : 38.1%
c1ccc(CC2=NOC(Cc3ccccc3)C2)cc1 (single isomer, unassigned; 14b) : 0%
COC(CC(=O)Cc1ccccc1)c1ccccc1 (stereo not drawn) : 4.9%
O=C(CCc1ccccc1)CC(O)Cc1ccc(F)cc1 (stereo not drawn) : 30.1%
COC(CC(=O)Cc1ccccc1)Cc1ccccc1 (stereo not drawn) : 1.4%
Oc1ccc(CC2CC(CCc3ccccc3O)=NO2)cc1 (single isomer, unassigned; 75a) : 20.4%
CS(C)=C(C(=O)CCc1ccccc1)C(=O)Cc1ccccc1 : 0.5%

====

- Target: Estrogen receptor (Homo sapiens)
- Experiment notes: Activation of human estrogen receptor alpha expressed in HEK293 cells at 10 uM by beta-galactosidase reporter gene assay relative to 3,17 beta-estradiol
- Format: cell-based
Measure name: Activity

COC(CCc1ccccc1)CC(=O)Cc1ccccc1 (stereo not given) : 12%
Fc1ccc(CC2CC(CCc3ccccc3)=NO2)cc1 (single isomer, unassigned) : 28.9%
c1ccc(CCC2CC(c3ccccc3)=NO2)cc1 (single isomer, unassigned; 10b) : 1.1%
O=C(CC(=O)c1ccccc1)Cc1ccccc1 : 5.4%
COc1ccc(CC(O)CC(=O)CCc2ccccc2)cc1 (single isomer, unassigned; 54a) : 1.6%
Oc1cccc(CCC2=NOC(Cc3ccccc3)C2)c1 (stereo not given) : 15.7%
COc1ccc(CC(O)CC(=O)CCc2ccccc2)cc1 (single isomer, unassigned; 54b) : 1.3%
c1ccc(CCC2=NOC(CCc3ccccc3)C2)cc1 (single isomer, unassigned; 18a) : 3.4%
O=C(Cc1ccccc1)CC(O)c1ccccc1 (stereo not given) : 0.8%
COC(CC(=O)CCc1ccccc1)Cc1ccc2ccccc2c1 (stereo not given) : 30.4%

====

Some molecules, each annotated with its measured Activity.
- Target: Estrogen receptor beta (Homo sapiens)
- Experiment notes: Activation of human estrogen receptor beta expressed in HEK293 cells at 10 uM beta-galactosidase reporter gene assay relative to 3,17-beta-estradiol
- Assay type: cell-based
Measure name: Activity

CS(C)=C(C(=O)CCCc1ccccc1)C(=O)CCc1ccccc1 : -4.6%
COC(CC(=O)Cc1ccccc1)c1ccccc1 (stereo unspecified) : -1.2%
COc1ccccc1CC(CC(=O)Cc1ccc2ccccc2c1)OC (stereo unspecified) : 0.1%
O=C(CCCc1ccccc1)CC(O)Cc1ccccc1 (stereo unspecified) : 9.1%
COc1ccc(CC(CC(=O)CCc2ccccc2)OC)cc1 (stereo unspecified) : 4%
O=C(CCCc1ccccc1)CC(O)c1ccccc1 (single isomer, unassigned; 24a) : 147%
COC(CC(=O)Cc1ccc(F)cc1)Cc1cccc2ccccc12 (single isomer, unassigned; 62a) : -0.6%
O=C(CCc1ccccc1)CC(O)CCc1ccccc1 (stereo unspecified) : 1%
COc1ccc(CC2CC(CCc3ccccc3)=NO2)cc1 (single isomer, unassigned; 50a) : 10.6%
Oc1ccc(CC2CC(CCc3ccccc3)=NO2)cc1 (single isomer, unassigned; 69a) : 9.1%
COC(CC(=O)Cc1ccccc1)Cc1ccccc1 (stereo unspecified) : 0.3%
COc1ccccc1CC(=O)CC(Cc1ccc2ccccc2c1)OC (single isomer, unassigned; 66b) : -0.5%
Oc1ccccc1CCC1=NOC(Cc2ccc(F)cc2)C1 (single isomer, unassigned; 73b) : -2.4%
c1ccc(CCC2=NOC(Cc3cccc4ccccc34)C2)cc1 (single isomer, unassigned; 52b) : 6.5%
COc1ccc(CC(O)CC(=O)CCc2ccccc2)cc1 (single isomer, unassigned; 54a) : -0.8%
c1ccc(CC2=NOC(c3ccccc3)C2)cc1 (stereo unspecified) : 34.4%
O=C(CCc1ccccc1)CC(O)c1ccccc1 (single isomer, unassigned; 23a) : 20.5%
c1ccc(CCC2CC(c3ccccc3)=NO2)cc1 (single isomer, unassigned; 10b) : -6%
COC(CCc1ccccc1)CC(=O)Cc1ccccc1 (stereo unspecified) : 0.2%
c1ccc(CC2=NOC(Cc3ccccc3)C2)cc1 (single isomer, unassigned; 14b) : 0.3%
COC(CC(=O)CCc1ccccc1)Cc1ccccc1 (stereo unspecified) : 1.3%

====

- Target: Estrogen receptor (Homo sapiens)
- Experiment notes: Activation of human estrogen receptor alpha expressed in HEK293 cells at 10 uM beta-galactosidase reporter gene assay relative to control
- Assay type: cell-based
Measure name: Activity

O=C(CCc1ccccc1)CC(=O)Cc1ccccc1 : 8.7
COC(CC(=O)Cc1ccccc1)Cc1ccc2ccccc2c1 (racemic) : 22.9
COC(CC(=O)Cc1cccc2ccccc12)Cc1cccc2ccccc12 (single isomer, unassigned; 64b) : 26.1
c1ccc(CCC2=NOC(CCc3ccccc3)C2)cc1 (single isomer, unassigned; 18b) : 126

====

- Target: Estrogen receptor (Homo sapiens) (UniProt P03372)
- Experiment notes: Activation of human estrogen receptor alpha expressed in HEK293 cells at 10 uM in presence of ICI-182780 beta-galactosidase reporter gene assay relative to control
- Type: cell-based
Some molecules, each annotated with its measured Activity.
Measure name: Activity

c1ccc(CCC2=NOC(CCc3ccccc3)C2)cc1 (single isomer, unassigned; 18b) : 1
O=C(CCc1ccccc1)CC(=O)Cc1ccccc1 : 1
COC(CC(=O)Cc1cccc2ccccc12)Cc1cccc2ccccc12 (single isomer, unassigned; 64b) : 1.1
COC(CC(=O)Cc1ccccc1)Cc1ccc2ccccc2c1 (racemic) : 1.6

====

- Target: UniProt:P03372
- Sequence (whole entry): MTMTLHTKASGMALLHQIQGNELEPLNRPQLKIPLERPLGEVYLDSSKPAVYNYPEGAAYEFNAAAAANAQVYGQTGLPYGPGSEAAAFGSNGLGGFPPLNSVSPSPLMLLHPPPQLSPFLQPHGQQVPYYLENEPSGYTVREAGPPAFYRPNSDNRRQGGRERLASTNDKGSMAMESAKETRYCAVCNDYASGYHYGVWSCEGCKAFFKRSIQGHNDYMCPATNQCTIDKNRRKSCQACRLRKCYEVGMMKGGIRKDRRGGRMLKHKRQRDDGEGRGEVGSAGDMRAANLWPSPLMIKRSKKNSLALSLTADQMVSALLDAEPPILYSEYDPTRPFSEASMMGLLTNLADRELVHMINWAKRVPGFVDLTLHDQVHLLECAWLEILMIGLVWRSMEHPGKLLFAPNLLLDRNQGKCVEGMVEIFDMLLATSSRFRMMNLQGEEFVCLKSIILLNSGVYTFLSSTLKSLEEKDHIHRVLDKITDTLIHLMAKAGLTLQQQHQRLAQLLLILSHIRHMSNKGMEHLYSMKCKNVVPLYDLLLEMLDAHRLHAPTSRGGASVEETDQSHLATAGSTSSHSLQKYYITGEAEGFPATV
- Experiment notes: Activation of human estrogen receptor alpha expressed in HEK293 cells at 10 uM by beta-galactosidase reporter gene assay relative to 3,17 beta-estradiol
- Assay type: cell-based
Measure name: Activity (%)

O=C(Cc1ccccc1)CC(O)Cc1ccccc1 (centres undefined) : 8.4
COc1ccc(CC2CC(CCc3ccccc3)=NO2)cc1 (single isomer, unassigned; 50b) : 16.1
c1ccc(CCC2=NOC(Cc3ccccc3)C2)cc1 (single isomer, unassigned) : 68.4
O=C(CCCc1ccccc1)CC(=O)Cc1ccccc1 : 27.7
COC(CC(=O)Cc1cccc2ccccc12)Cc1cccc2ccccc12 (single isomer, unassigned; 64a) : 5.6
O=C(CCc1ccccc1)CC(O)Cc1ccccc1 (centres undefined) : 12.8
Oc1ccc(CCC2=NOC(Cc3ccc(F)cc3)C2)cc1 (single isomer, unassigned) : 77.8
Oc1ccccc1CCC1=NOC(Cc2ccc(F)cc2)C1 (single isomer, unassigned; 73b) : 11.1
COc1ccccc1CC(=O)CC(Cc1cccc2ccccc12)OC (single isomer, unassigned; 63a) : 0
